test system: Bacteroides caccae; test: growth AUC relative to DMSO control (median of replicates) (fraction); higher = more growth (less inhibition), active = hit call of the paper; settings: 20 µM; 24 h
Listed next: entries and their corresponding growth AUC.
# print the numeric value only

Sample answers from the record:
compound	property.measured	observed.value
CCc1cccc(C)c1NC(=O)C(=O)O	growth AUC	1.01
CCc1cccc(C)c1N(C(=O)C(=O)O)[C@@H](C)C(=O)O	growth AUC	0.993
C/C=C/C=C/CCCCCCCO	growth AUC	1.03
[S]	growth AUC	0.954
N#Cc1ccc(CC(=NNC(=O)Nc2ccc(OC(F)(F)F)cc2)c2cccc(C(F)(F)F)c2)cc1 (mixture of isomers)	growth AUC	1.03
COc1cc(Cl)ccc1Oc1ccc(Cl)cc1Cl	growth AUC	0.902
COCC(=O)N(c1c(C)cccc1C(=O)O)C(C)C(=O)O (configuration not stated)	growth AUC	1.02
Cc1nc(C(F)(F)F)c(C(=O)Nc2c(Br)cc(OC(F)(F)F)cc2Br)s1	growth AUC	0.984
O=C(O)Cc1c(Cl)ccc(Cl)c1Cl	growth AUC	1
Cc1c(C(=O)c2c[nH]n(C)c2=O)ccc(S(C)(=O)=O)c1C1=NOCC1	growth AUC	1.03

What does the record list as growth AUC for Cc1ccc(Cl)cc1 ?
0.982

Entry to check: CCNc1nc(NCC)nc(OC)n1
1.02

====

# Lookup of reported growth AUC keyed by entry
tested on: Bacteroides dorei; test: growth AUC relative to DMSO control (median of replicates) (fraction); higher = more growth (less inhibition), active = hit call of the paper; details: 20 µM; 24 h
Format: numeric value only, no unit, no commentary.

compound	measurement.target	growth AUC
O=C(O)[C@@H](S)[C@@H](S)C(=O)O	Bacteroides dorei	1.01
Cl.NCCO/C=C/[C@H](N)C(=O)O	Bacteroides dorei	1.03
CCCCOCCOC(=O)COc1ccc(Cl)cc1Cl	Bacteroides dorei	0.867
COCC(=O)N(c1c(C)cccc1C)C(C)C(=O)O (centres undefined)	Bacteroides dorei	1.01
O=c1oc(-c2ccccc2)nc2ccccc12	Bacteroides dorei	0.979

// query growth AUC value for entry COc1c(I)cc(C#N)cc1I
1.02

Same question for C/C=C/C(=O)Oc1c(C(C)CCCCCC)cc([N+](=O)[O-])cc1[N+](=O)[O-] (mixture of isomers) please.
0.0151

Subsequent entry: CCNc1nc(NC(C)(C)C)nc(OC)n1
0.992

What about COC(=O)c1ccc(C(=O)OC)cc1 ?
1.01

And CCc1ccc(C(c2ccc(CC)cc2)C(Cl)Cl)cc1 ?
1.02

====

Below, each of the compounds is paired with its reported growth AUC value.
test system: Parabacteroides merdae; assay: growth AUC relative to DMSO control (median of replicates) (fraction); higher = more growth (less inhibition), active = hit call of the paper; conditions: 20 µM; 24 h
Output: the number by itself.

Worked examples, 10 compounds total:
compound	growth AUC
CCNc1nc(NC(C)(C)C)[nH]c(=O)n1	0.994
N#CC(=NOCC1OCCO1)c1ccccc1	0.931
CCNc1nc(NC(C)CC)nc(OC)n1 (centres undefined)	1.02
COC(=O)c1c(Cl)nn(C)c1S(=O)(=O)NC(=O)Nc1nc(OC)cc(OC)n1	0.99
Nc1ccc(S(=O)(=O)Nc2nccs2)cc1	1.03
CCc1cccc(CC)c1N(COC)C(=O)C(=O)O	0.991
O=C(Nc1ccc(O)cc1-c1ccc(Cl)cc1)c1cccnc1Cl	0.994
O=C(O)c1ccc(Cl)cc1Cl	0.989
CCCOC(=O)c1ccc(C(=O)OCCC)nc1	0.986
CN(C)C(=O)NC1CCCCCCC1	1.01

Could you now look at the following compound, please?
Provide value of growth AUC for this record tested with Parabacteroides merdae: C[S+](C)CCC(=O)O.[Cl-]
1.02

====

test system: Bacteroides uniformis; assay: growth AUC relative to DMSO control (median of replicates) (fraction); higher = more growth (less inhibition), active = hit call of the paper; conditions: 20 µM; 24 h
growth AUC listing for selected molecules.

Consider the worked cases shown below.
molecule	measurement.target	growth AUC
CCC([O-])=C1C(=O)CC(C(=O)[O-])CC1=O.[Ca+2] (stereo not given)	Bacteroides uniformis	1.01 (inactive)
O=C(O)[C@@H](S)[C@@H](S)C(=O)O	Bacteroides uniformis	1.04 (inactive)
CCCCOCCOC(=O)COc1ccc(Cl)cc1Cl	Bacteroides uniformis	0.93 (inactive)
Cc1cc(C)cc(OCC(C)Nc2nc(N)nc(C(C)(C)F)n2)c1 (stereo not given)	Bacteroides uniformis	0.962 (inactive)
C=CCc1ccc(OC)c(OC)c1	Bacteroides uniformis	1.04 (inactive)
CCc1cccc(C)c1N(C(=O)C(=O)O)C(C)COC (stereo not given)	Bacteroides uniformis	1.03 (inactive)
CNC(=O)Nc1nc2ccccc2s1	Bacteroides uniformis	0.966 (inactive)
O=C(O)Cc1cccc2ccccc12	Bacteroides uniformis	1.04 (inactive)

Data request, read-out growth AUC, for CC1=C(C(=O)Nc2ccccc2)CCCO1
1.06 (inactive)

Likewise for COc1ccc(NC(=O)N(C)C)cc1Cl ?
1.02 (inactive)

Then what about the molecule CCOC(=O)C1=NN(c2ccc(Cl)cc2Cl)C(C)(C(=O)OCC)C1 (stereo not given) ?
0.95 (inactive)

Also NC1=C(Cl)C(=O)c2ccccc2C1=O ?
0.88 (inactive)

Next entry: CCNc1nc(N)[nH]c(=O)n1
1.02 (inactive)

Now consider [S] .
1.06 (inactive)

Would you mind doing CN(C)C(=O)NC1CCCCCCC1 as well?
0.972 (inactive)

Param item: c1ccc2c(c1)-c1cccc3c1c-2cc1ccccc13
1.03 (inactive)

Now give it for COC(=O)c1ccc(CNS(C)(=O)=O)cc1S(=O)(=O)NC(=O)Nc1nc(OC)cc(OC)n1 too.
1.01 (inactive)

====

test system: Parabacteroides distasonis; test: growth AUC relative to DMSO control (median of replicates) (fraction); higher = more growth (less inhibition), active = hit call of the paper; details: 20 µM; 24 h
property.measured: growth AUC
No unit in the answer, please; the number alone is enough.

# example entries with known answers
compound	measurement.target	growth AUC
C#CCOc1cc(-n2nc(C(C)(C)C)oc2=O)c(Cl)cc1Cl	Parabacteroides distasonis	0.392
Cc1cccc(C)c1O	Parabacteroides distasonis	0.995
CCNc1nc(NCC)nc(OC)n1	Parabacteroides distasonis	1.04
N#CC(=NOCC1OCCO1)c1ccccc1	Parabacteroides distasonis	0.981
CCN(Cc1c(F)cccc1Cl)c1c([N+](=O)[O-])cc(C(F)(F)F)cc1[N+](=O)[O-]	Parabacteroides distasonis	0.934
CCC/C(=N\OCC(C)Oc1ccc(Cl)cc1)C1=C(O)CC(C2CCCSC2)CC1=O (stereo not given)	Parabacteroides distasonis	0.885
O=C(Nc1ccc(F)cc1)c1cccc(Oc2cccc(C(F)(F)F)c2)n1	Parabacteroides distasonis	0.905
N[C@@H](Cc1cc(I)c(Oc2cc(I)c(O)c(I)c2)c(I)c1)C(=O)O	Parabacteroides distasonis	0.921
O=C(Nc1ccc(Cl)cc1C(O)c1ccccc1)c1ccncc1 (stereo not given)	Parabacteroides distasonis	0.983

# context switch: different compound, same growth AUC
Param readout = growth AUC; param system = Parabacteroides distasonis; param query = CC1=C(c2ccccc2)C(=O)N(C(C)(C)c2cc(Cl)cc(Cl)c2)CO1 ; response: value
0.732

====

Listing: growth AUC of selected compounds
test system: Escherichia coli ED1a; assay: growth AUC relative to DMSO control (median of replicates) (fraction); higher = more growth (less inhibition), active = hit call of the paper; conditions: 20 µM; 24 h
Lab note: record the figure alone, no unit after it.

Please review the entries below; each comes with its answer.
compound	observed.value
NC(=O)c1c(Cl)cccc1Cl	1.01
NC(Cn1cncn1)C(=O)O (configuration not stated)	0.966
c1ccc2cc3ccccc3cc2c1	0.987
CCOc1nc(F)cc2nc(S(=O)(=O)Nc3c(Cl)cccc3C(=O)OC)nn12	0.991
O=[N+]([O-])c1ccc(Oc2c(Cl)cc(Cl)cc2Cl)cc1	1.01

Reported growth AUC for CCCOc1nc2ccc(I)cc2c(=O)n1CCC : what is it?
0.991

Also O=C(Nc1ccc(F)cc1-c1ccc(Cl)c(Cl)c1)c1cn[nH]c1C(F)F ?
0.974

Next compound: NC(=S)Nc1cccc2ccccc12
0.96

And the next one, C#CCN(C)c1c(C#N)cnn1-c1nn2c(c1Cl)CCCC2 ?
0.999

Can you check FC(F)(F)C(=NOCC1OCCO1)c1ccc(Cl)cc1 next?
1.01

Entry Cc1cc(N(C)C)nc(Cl)n1 please
1.02

Can you check COC(=O)Cc1cccc2ccccc12 next?
0.969

====

test system: Lactobacillus gasseri; experiment: growth AUC relative to DMSO control (median of replicates) (fraction); higher = more growth (less inhibition), active = hit call of the paper; details: 20 µM; 24 h
growth AUC reference
Hey, just send me the number, nothing else.

compound	measurement.target	property.measured	observed.value
CS(=O)(=O)c1ccc(C(=O)C2C(=O)C(O)CC(O)C2=O)c(Cl)c1COCC(F)(F)F (stereo unspecified)	Lactobacillus gasseri	growth AUC	1.02
COC(=O)c1c(Cl)ccc(Cl)c1OC	Lactobacillus gasseri	growth AUC	0.979
N#Cc1cc(Cl)c(O)c(Cl)c1	Lactobacillus gasseri	growth AUC	1.17
CCc1cccc(C)c1N(C(=O)C(=O)O)[C@@H](C)C(=O)O	Lactobacillus gasseri	growth AUC	0.853
CCOC(=O)NCCOc1ccc(Oc2ccccc2)cc1	Lactobacillus gasseri	growth AUC	1.03
COC(=O)COc1ccc(Cl)cc1C	Lactobacillus gasseri	growth AUC	1.01
CCCCOCCOC(=O)COc1nc(Cl)c(Cl)cc1Cl	Lactobacillus gasseri	growth AUC	0.917
CCNc1nc(Cl)nc(N(CC)CC)n1	Lactobacillus gasseri	growth AUC	0.925

What measured growth AUC goes with CCOC(=O)[C@@H](C)Oc1ccc(Oc2cnc3cc(Cl)ccc3n2)cc1 ?
1.03

What about this compound? CC(C)(C)[C@@H](O)[C@@H](Cc1ccc(Cl)cc1)n1cncn1 (mixture of isomers)
0.913

Item: CCCCCCCCSCCO
0.94
